- Assay target: CCR-3 (Homo sapiens)
- Construct: expressed in transfected cells
- Test: CCR-3 competition binding SPA (scintillation proximity assay)
- Recorded conditions: read-out: CCR-3 Binding Assay (pIC50) (converted)
- Method: A CCR-3 competition binding SPA (scintillation proximity assay) was used to assess the affinity of novel compounds for CCR-3. […] Following incubation, 20 pM of [^125I) eotaxin (Amersham) and increasing concentrations of compound (1 pM to 30 μM) were added and incubated in a 96 well plate for 2 hr at 22° C. then counted on a Microbeta plate counter. […] Competition binding data were analysed by fitting the data with a four parameter logistic equation. […]
Quantity name: IC50 (nM)

O=C(Cc1ccc(C(F)(F)F)cc1)NCC1CN(Cc2ccc(Cl)c(Cl)c2)CCO1 (stereo not drawn) [Example 14]; 339

a. O=C(Cn1nnc(-c2ccccc2)n1)NC[C@H]1CN(Cc2ccc(Cl)c(Cl)c2)CCO1 [Example 44]
b. CS(=O)(=O)Nc1ccc(CC(=O)NC[C@H]2CN(Cc3ccc(F)cc3)CCO2)cc1 [Example 46]
Would you let me know which has the greater IC50 value, a or b ? The response must carry the label of the picked entry.
b

* * *

- Assay target: eosinophil chemotaxis
- Test: Eosinophil chemotaxis assay (eotaxin-induced)
- Type: cell-based, human
- Recorded conditions: functional pKi (fpKi)
Quantity name: CCR-3 Eosinophil Chemotaxis Assay (fpKi)

O=C(Cc1ccsc1)NCC1CN(Cc2ccc(Cl)c(Cl)c2)CCO1 (centres unmarked) [Example 32]; 7.32
O=C(Cc1cc(C(F)(F)F)cc(C(F)(F)F)c1)NCC1CN(Cc2ccc(Cl)c(Cl)c2)CCO1 (centres unmarked) [Example 17]; 6.24
O=C(Cc1csc(-c2cnccn2)n1)NCC1CN(Cc2ccc(Cl)c(Cl)c2)CCO1 (centres unmarked) [Example 37]; 7.97
Cc1oc(-c2ccc(F)cc2)nc1CC(=O)NCC1CN(Cc2ccc(Cl)c(Cl)c2)CCO1 (centres unmarked) [Example 41]; 7.99
O=C(Cc1csc(-c2cnccn2)n1)NC[C@H]1CN(Cc2ccc(Cl)c(Cl)c2)CCO1 [Example 42]; 9.32
O=C(Cc1cccc(F)c1)NCC1CN(Cc2ccc(Cl)c(Cl)c2)CCO1 (centres unmarked) [Example 3]; 7.15
CS(=O)(=O)c1ccc(CC(=O)NC[C@H]2CN(Cc3ccc(Cl)c(Cl)c3)CCO2)cc1 (single isomer, unassigned) [Example 39]; 8.31
Cc1oc(-c2ccccc2)nc1CC(=O)NC[C@H]1CN(Cc2ccc(Cl)c(Cl)c2)CCO1 [Example 54]; 7.96

* * *

- Assay target: CCR-3 (Homo sapiens, UniProt P51677)
- Construct: expressed in transfected cells
- Sequence (P51677 1-355): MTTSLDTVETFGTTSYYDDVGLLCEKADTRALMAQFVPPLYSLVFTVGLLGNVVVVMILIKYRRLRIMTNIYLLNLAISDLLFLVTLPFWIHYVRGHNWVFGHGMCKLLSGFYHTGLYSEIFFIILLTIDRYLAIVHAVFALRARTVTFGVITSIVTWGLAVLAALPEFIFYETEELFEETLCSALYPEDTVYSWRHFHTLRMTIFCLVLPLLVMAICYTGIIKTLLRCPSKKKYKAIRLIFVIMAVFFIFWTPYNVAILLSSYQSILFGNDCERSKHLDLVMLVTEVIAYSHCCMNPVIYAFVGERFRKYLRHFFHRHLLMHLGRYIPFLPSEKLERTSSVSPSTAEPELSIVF
- Test: CCR-3 competition binding SPA (scintillation proximity assay)
- Recorded conditions: read-out: CCR-3 Binding Assay (pIC50) (converted)
Quantity name: IC50 (nM)

A selection of reference data follows.
C[C@H]1CO[C@H](CNC(=O)Cc2ccccc2)CN1Cc1ccc(Cl)c(Cl)c1 (relative stereo) [Example 25]; 60.3
Cc1oc(-c2ccccc2)nc1CC(=O)NC[C@@H]1CN(Cc2ccc(Cl)c(Cl)c2)CCO1 [Example 55]; 398
Cc1nn(CC(=O)NCC2CN(Cc3ccc(Cl)c(Cl)c3)CCO2)c(C)c1Br (centres unmarked) [Example 35]; 155
CS(=O)(=O)Nc1ccc(CC(=O)NCC2CN(Cc3ccc(F)c(F)c3)CCO2)cc1 (centres unmarked) [Example 45]; 13.2
COc1ccc(CC(=O)NCC2CN(Cc3ccc(Cl)c(Cl)c3)CCO2)cc1 (centres unmarked) [Example 22]; 110
CN(C)S(=O)(=O)c1ccc(CC(=O)NCC2CN(Cc3ccc(Cl)c(Cl)c3)CCO2)cc1 (centres unmarked) [Example 7]; 15.1

1. COc1ccc2[nH]c(C)c(CC(=O)NCC3CN(Cc4ccc(Cl)c(Cl)c4)CCO3)c2c1 (centres unmarked) [Example 31]
2. O=C(Cc1cccc(C(=O)NC2CC2)c1)NCC1CN(Cc2ccc(Cl)c(Cl)c2)CCO1 (centres unmarked) [Example 53]
3. CSc1ccc(CC(=O)NCC2CN(Cc3ccc(Cl)c(Cl)c3)CCO2)cc1 (centres unmarked) [Example 5]
4. Cc1cc(F)ccc1CC(=O)NCC1CN(Cc2ccc(Cl)c(Cl)c2)CCO1 (centres unmarked) [Example 19]
Please put the entries in order of rising IC50. Write the labels, ordered according to the request.
2, 3, 1, 4
(2: 4.07 nM, 3: 77.6 nM, 1: 513 nM, 4: 832 nM)

I. Cc1oc(-c2ccccc2)nc1CC(=O)NC[C@H]1CN(Cc2ccc(Cl)c(Cl)c2)CCO1 [Example 54]
II. O=C(Cc1cc(Cl)ccc1Cl)NCC1CN(Cc2ccc(Cl)c(Cl)c2)CCO1 (centres unmarked) [Example 13]
Input pair: I , II . Output: entry with lower IC50. The response must carry the label of the picked entry.
I

1. O=C(Cc1cccc(Cl)c1)NCC1CN(Cc2ccc(Cl)c(Cl)c2)CCO1 (centres unmarked) [Example 8]
2. NS(=O)(=O)c1cccc(CC(=O)NC[C@H]2CN(Cc3ccc(Cl)c(Cl)c3)CCO2)c1 [Example 162]
3. O=C(Cc1ccco1)NCC1CN(Cc2ccc(Cl)c(Cl)c2)CCO1 (centres unmarked) [Example 38]
Returns the items ordered by IC50, from maximum to minimum. Write the labels, ordered according to the request.
1, 3, 2
